Could you please report measured EC50 (cAMP, CHO/GCGR) for the items listed next?
Molecular target: human glucagon receptor (human, UniProt P47871 26-477)
Sequence (P47871 26-477): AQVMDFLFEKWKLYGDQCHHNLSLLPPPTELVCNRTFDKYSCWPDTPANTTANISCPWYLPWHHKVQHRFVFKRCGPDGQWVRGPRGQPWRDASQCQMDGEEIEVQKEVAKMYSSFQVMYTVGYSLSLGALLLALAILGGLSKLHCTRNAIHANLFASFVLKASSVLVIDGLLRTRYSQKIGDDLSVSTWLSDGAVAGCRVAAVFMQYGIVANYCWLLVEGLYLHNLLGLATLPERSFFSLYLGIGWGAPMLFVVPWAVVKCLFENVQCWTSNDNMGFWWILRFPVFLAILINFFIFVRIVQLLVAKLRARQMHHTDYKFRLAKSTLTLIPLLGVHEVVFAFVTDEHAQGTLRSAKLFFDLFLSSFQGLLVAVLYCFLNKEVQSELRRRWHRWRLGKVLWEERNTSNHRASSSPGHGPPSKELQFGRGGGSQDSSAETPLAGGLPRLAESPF
Assay: cell-based or functional assay
Bridges are numbered along the chain shown (N, C = ends). Where no end group is shown, it is not given here. [ ]: non-standard residue; d: D form. Aib = CC(C)(N)C(=O)O
Answers are plain numbers, in nM.

// worked examples, EC50 (cAMP, CHO/GCGR) included
>  <BINDER>
H[Aib]QGTFTSDYSKYLDEKRAKEFVQWLMNTC (bridge 16-20) [oxyntomodulin derivative of SEQ ID NO: 25]

>  <EC50 (cAMP, CHO/GCGR) (nM)>
1.3

$$$$
>  <BINDER>
H[Aib]QGTFTSDYAKYLDEKRAKEFVQWLMNTC (bridge 16-20) [oxyntomodulin derivative of SEQ ID NO: 33]

>  <EC50 (cAMP, CHO/GCGR) (nM)>
80.2

$$$$

Turning now to a further record.
Just so you know, measured EC50 (cAMP, CHO/GCGR) for Y[Aib]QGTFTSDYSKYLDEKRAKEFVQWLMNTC (bridge 16-20) [oxyntomodulin derivative of SEQ ID NO: 34] came out at 1.04
